Every entry's value here was drawn from patent US20240270821A1.

# Target under test: hGIPR (Homo sapiens)
# Sequence (P48546 22-466): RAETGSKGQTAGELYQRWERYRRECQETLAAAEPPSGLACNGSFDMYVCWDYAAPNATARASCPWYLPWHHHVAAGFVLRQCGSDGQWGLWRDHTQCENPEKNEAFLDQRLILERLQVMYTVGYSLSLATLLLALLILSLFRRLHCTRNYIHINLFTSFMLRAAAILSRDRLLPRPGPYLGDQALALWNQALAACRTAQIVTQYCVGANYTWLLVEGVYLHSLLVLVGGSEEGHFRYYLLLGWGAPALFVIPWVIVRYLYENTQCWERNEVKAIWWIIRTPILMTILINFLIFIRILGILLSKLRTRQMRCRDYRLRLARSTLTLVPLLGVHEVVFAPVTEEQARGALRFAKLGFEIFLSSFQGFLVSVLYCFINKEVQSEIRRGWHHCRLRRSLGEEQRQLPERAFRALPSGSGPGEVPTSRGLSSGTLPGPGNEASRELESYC
# Assay summary: Functional cAMP activity in the presence of 1% HSA
# Assay type: cell-based
# Recorded conditions: read-out: cAMP Rel EC50, hGIPR
Starred links: 1 amine or outer side, 2 acyl side, 3 side chain; linkers in the order of their positions; H or OH if unused. Non-standard residues stand in square brackets, D forms with d. Groups on a side chain read outwards from the residue. No end group written: not given here. *: point of attachment. C20 diacid = O=C(O)CCCCCCCCCCCCCCCCCCC(=O)*; C18 diacid = O=C(O)CCCCCCCCCCCCCCCCC(=O)*; Phe(4-CN) = N#Cc1ccc(C[C@H](N)C(=O)O)cc1; αMePhe(2-F) = C[C@](N)(Cc1ccccc1F)C(=O)O; γGlu = O=C(O)[C@H](CCC(=O)[*:2])N[*:1]; αMe4Pal = C[C@](N)(Cc1ccncc1)C(=O)O; αMeY = C[C@](N)(Cc1ccc(O)cc1)C(=O)O; 4Pal = N[C@@H](Cc1ccncc1)C(=O)O; αMeL = CC(C)C[C@](C)(N)C(=O)O; αMeS = C[C@](N)(CO)C(=O)O; Orn = NCCC[C@H](N)C(=O)O; AEEA = NCCOCCOCC(=O)O; Aib = CC(C)(N)C(=O)O
Experimental endpoint: EC50 (nM)
Could you give me the number in nM? Just the number is fine.

H-Y[Aib]QGT[αMePhe(2-F)]TSD[4Pal][αMeS]I[αMeL]LD[Orn]K([AEEA-γGlu-C18 diacid])AQ[αMe4Pal]EFI[dE][αMeY]LVEGGPSSGEPPPEGE-NH2 [Example 1159]: 1.29

Looking up H-Y[Aib]QGTFTSD[Phe(4-CN)]S[Orn][αMeL]LDKK([AEEA-γGlu-C18 diacid])AQ[Aib]AFIEYLLE[Aib]GHSSGAPPPSGS-NH2 [Example 190] , I see its EC50 listed as 59.4

Looking up H-Y[Aib]QGTFTSDFS[Orn][αMeL]LDKK([AEEA-γGlu-C18 diacid])AQ[αMe4Pal]DFIEYLIE[Aib]GPSSGAPPPSGS-NH2 [Example 880] , I see its EC50 listed as 76.2

Looking up Y[Aib]QGT[αMePhe(2-F)]TSDYSKILDKIAQK([AEEA-γGlu-C20 diacid])AFIQYLIEGGPSSGEPPPSEG-NH2 [Example 354] , I see its EC50 listed as 23.8

Looking up H-Y[Aib]QGTFTSD[4Pal]S[Orn][αMeL]LDKK([AEEA-γGlu-γGlu-C18 diacid])AQ[αMe4Pal]AFIE[αMe4Pal]LIE[Aib]GPSSGEPPPSGS-NH2 [Example 987] , I see its EC50 listed as 11.7
